test system: Yap1 mRNA; experiment: Antisense inhibition of human Yap1 in A-431 cells by cEt gapmers, single dose (Example 4, RTS4814); type: cell-based; details: Table 17; A-431 cells, 5,000 cells per well, free uptake, 2,000 nM, approximately 48 hours; RTS4814; normalized to RIBOGREEN; Yap1 mRNA relative to untreated control cells
Strand notation (5' to 3'): a small letter for the sugar, then the base; units joined by * are phosphorothioate-linked, units joined directly phosphodiester-linked; [ ] holds rarer units or linkages, { } end groups; capitals alone tell only the bases. k = constrained ethyl (cEt); [5mC] = 5-methylcytosine; d = 2'-deoxy (DNA)
// reported YAP1 (% UTC) per item
Report as a plain number; the unit % UTC is understood.

Completed entries (count: 3):
1075651 (kT*kA*kT*dA*dT*dT*dA*d[5mC]*dA*dA*dT*d[5mC]*d[5mC]*k[5mC]*kA*kG; antisense) [Compound 1075651]	57
1075907 (kA*kA*kT*dT*dA*d[5mC]*dT*dA*d[5mC]*dT*dG*dG*d[5mC]*k[5mC]*kA*kT; antisense) [Compound 1075907]	55
1074787 (k[5mC]*kA*kA*d[5mC]*d[5mC]*dA*dT*dA*dA*dG*dT*dA*dG*kA*kT*k[5mC]; antisense) [Compound 1074787]	13

Shift focus to the following entry.
The recorded YAP1 (% UTC) for 1074691 (antisense k[5mC]*k[5mC]*k[5mC]*dT*d[5mC]*d[5mC]*d[5mC]*d[5mC]*d[5mC]*dT*dA*dA*dG*k[5mC]*kT*kA) [Compound 1074691] is 76

====

tested on: Yap1 mRNA; test: Antisense inhibition of human Yap1 in A-431 cells by cEt gapmers, single dose (Example 2, RTS4814); type: cell-based; conditions: Table 6; A-431 cells, 5,000 cells per well, free uptake, 2,000 nM modified oligonucleotide, approx. 48 hours; RTS4814; normalized to RIBOGREEN; Yap1 mRNA relative to untreated control cells
Strand notation (5' to 3'): a small letter for the sugar, then the base; units joined by * are phosphorothioate-linked, units joined directly phosphodiester-linked; [ ] holds rarer units or linkages, { } end groups; capitals alone tell only the bases. k = constrained ethyl (cEt); [5mC] = 5-methylcytosine; d = 2'-deoxy (DNA)
// reported YAP1 (% UTC) for each item listed

716363 (k[5mC]*kG*kG*dA*d[5mC]*dG*dG*d[5mC]*dG*dG*dG*d[5mC]*d[5mC]*k[5mC]*kT*kG; antisense) [Compound 716363]	103 % UTC

Now consider the entry below.
YAP1 (% UTC) recorded for this substance, 716576 (kT*kG*kT*d[5mC]*dA*dG*dT*dT*dA*dT*d[5mC]*d[5mC]*dT*kA*kT*k[5mC]; antisense) [Compound 716576] , is 52 % UTC

====

Test system: Yap1 mRNA
Test: Antisense inhibition of human Yap1 in A-431 cells by cEt gapmers, single dose (Example 2, RTS4814)
Type: cell-based
Conditions: Table 18; A-431 cells, 5,000 cells per well, free uptake, 2,000 nM modified oligonucleotide, approx. 48 hours; RTS4814; normalized to RIBOGREEN; Yap1 mRNA as percent of untreated control
Experimental: Modified oligonucleotides were designed to target a Yap1 nucleic acid and were tested for their effect on Yap1 mRNA level in vitro. The modified oligonucleotides were tested in a series of experiments that had similar culture conditions. […] After a treatment period of approximately 48 hours, RNA was isolated from the cells and Yap1 mRNA levels were measured by quantitative real-time RTPCR. […] Yap1 mRNA levels were normalized to total RNA content, as measured by RIBOGREEN®. […]
Strand notation (5' to 3'): a small letter for the sugar, then the base; units joined by * are phosphorothioate-linked, units joined directly phosphodiester-linked; [ ] holds rarer units or linkages, { } end groups; capitals alone tell only the bases. k = constrained ethyl (cEt); [5mC] = 5-methylcytosine; d = 2'-deoxy (DNA)
The threshold is inclusive: YAP1 (% UTC) of exactly 60 % UTC counts as yes (1); values below receive no (0).

Past entries and their recorded results:
1074276 (antisense k[5mC]*k[5mC]*kA*dA*dG*dA*dG*dG*dT*dG*dG*dT*d[5mC]*kT*kT*kG) [Compound 1074276]	yes (1)
1074372 (antisense k[5mC]*kT*kT*dT*dG*dG*dT*dT*dG*dA*dT*dA*dG*kT*kA*kT) [Compound 1074372]	no (0)
1074308 (antisense kG*k[5mC]*kA*dT*dT*dG*d[5mC]*d[5mC]*dT*dG*dT*dG*dG*k[5mC]*k[5mC]*kT) [Compound 1074308]	yes (1)

Here is the next item to consider.
Please indicate if the recorded YAP1 (% UTC) for 1075428 (antisense kT*kA*kT*dA*dT*dA*dA*dG*dG*d[5mC]*dA*dT*d[5mC]*kT*kT*kG) [Compound 1075428] meets or exceeds 60 % UTC.
no (0)

====

# AST per entry
experiment: Tolerability in Balb/c mice, plasma chemistry markers (Example 14); assay type: in vivo; conditions: male Balb/c mice, 50 mg/kg s.c. twice a week for four weeks (8 treatments), day 27
Strand notation (5' to 3'): a small letter for the sugar, then the base; units joined by * are phosphorothioate-linked, units joined directly phosphodiester-linked; [ ] holds rarer units or linkages, { } end groups; capitals alone tell only the bases. k = constrained ethyl (cEt); [5mC] = 5-methylcytosine; d = 2'-deoxy (DNA)
Response body: numeric value in U/L, unit text excluded.

958589 (kG*kT*kA*dA*dA*dG*dG*dA*dA*dG*dA*dT*d[5mC]*kT*k[5mC]*k[5mC]; antisense) [compound 958589]	66

In plain terms, 958497 (kA*kT*kA*dT*dG*dG*dA*dA*dA*dT*dT*dG*dT*k[5mC]*kT*k[5mC]) [compound 958497] has a documented AST of 151

====

tested on: Yap1 mRNA; assay: Antisense inhibition of human Yap1 in A-431 cells by cEt gapmers, single dose (Example 3, RTS36584); assay type: cell-based; settings: Table 35; Yap1 mRNA as percent of untreated control; 3-10-3 cEt gapmers targeting SEQ ID NO: 1 and 2; single dose
Strand notation (5' to 3'): a small letter for the sugar, then the base; units joined by * are phosphorothioate-linked, units joined directly phosphodiester-linked; [ ] holds rarer units or linkages, { } end groups; capitals alone tell only the bases. k = constrained ethyl (cEt); [5mC] = 5-methylcytosine; d = 2'-deoxy (DNA)
endpoint.label: YAP1 (% UTC)
A complete answer gives the number followed by the unit.

1075317 (antisense kG*kT*kA*dT*dT*d[5mC]*dG*d[5mC]*d[5mC]*dT*d[5mC]*d[5mC]*dT*kG*k[5mC]*kA) [compound 1075317]	27 % UTC
1074933 (antisense kA*kG*kG*dA*dG*dA*d[5mC]*dT*dA*dT*dA*d[5mC]*dA*kA*k[5mC]*kA) [compound 1074933]	72 % UTC

Switching to the query record.
Data point: 1076149 (kT*kT*kA*dT*dT*dA*dA*d[5mC]*dT*d[5mC]*dA*d[5mC]*dG*kA*kA*kG; antisense) [compound 1076149] ; YAP1 (% UTC) = 24 % UTC

====

system: Yap1 mRNA; experiment: Dose-dependent inhibition of human Yap1 in A-431 cells (Example 8, 10,000 cells per well, RTS4814); assay type: cell-based; settings: 2000.00 nM; A-431 cells
Strand notation (5' to 3'): a small letter for the sugar, then the base; units joined by * are phosphorothioate-linked, units joined directly phosphodiester-linked; [ ] holds rarer units or linkages, { } end groups; capitals alone tell only the bases. k = constrained ethyl (cEt); [5mC] = 5-methylcytosine; d = 2'-deoxy (DNA)
This listing pairs substances with measured % UTC (Yap1 mRNA).
Your answer should be a plain number; it is taken to be in % UTC.

Consider the reported % UTC (Yap1 mRNA) for these substances:
1075061 (antisense k[5mC]*k[5mC]*kT*dT*dA*dT*dA*d[5mC]*dT*dT*dT*dT*dA*kG*k[5mC]*k[5mC]) [compound 1075061]	6
1075093 (k[5mC]*kA*kA*dA*dG*dT*dA*dA*dG*dG*dT*dA*dT*kG*kA*kG; antisense) [compound 1075093]	4

Form: substance = 1075766 (kG*kG*kA*dG*dA*dA*d[5mC]*dA*d[5mC]*dA*dA*dG*dA*kG*kG*k[5mC]; antisense) [compound 1075766] ; % UTC (Yap1 mRNA) = 8

Noted for 1074487 (kA*kG*kA*dT*dT*d[5mC]*dA*d[5mC]*dT*dA*dA*dT*dA*kT*kG*kG; antisense) [compound 1074487] : its % UTC (Yap1 mRNA) reads 6

For reference, reported % UTC (Yap1 mRNA) for 1074549 (DNA kT*kA*kT*d[5mC]*dT*dA*d[5mC]*d[5mC]*dG*dT*dA*dT*dG*k[5mC]*k[5mC]*k[5mC]; antisense) [compound 1074549] stands at 7

The substance listed as 1075893 (antisense k[5mC]*kG*kT*dG*dA*dA*dA*dA*dA*dG*dA*dT*dG*kT*kG*kG) [compound 1075893] has a reported % UTC (Yap1 mRNA) of 8
